- Tested on: PPARg:RXRa DBDmut IVT, anti-RXR (DBD mutation: RXRa K156A/R161A, NR concentration 270 nM, RXRa partner concentration 90 nM)
- Test details: PBM binding z-score (relative to random genomic background probes); higher = stronger binding; sequences stand for … in GC…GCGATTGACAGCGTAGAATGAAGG
Readout type: PBM binding z-score

- Chain sequence: "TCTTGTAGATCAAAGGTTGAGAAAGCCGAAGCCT"
  Readout type: "PBM binding z-score"
  Recorded result: 2.32
- Chain sequence: "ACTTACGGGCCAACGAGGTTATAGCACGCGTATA"
  Readout type: "PBM binding z-score"
  Recorded result: 0.992
- Chain sequence: "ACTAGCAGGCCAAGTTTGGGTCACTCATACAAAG"
  Readout type: "PBM binding z-score"
  Recorded result: 1.29
- Chain sequence: "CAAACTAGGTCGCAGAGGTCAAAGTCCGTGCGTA"
  Readout type: "PBM binding z-score"
  Recorded result: 6.57
- Chain sequence: "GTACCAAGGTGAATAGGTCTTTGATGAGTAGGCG"
  Readout type: "PBM binding z-score"
  Recorded result: 2.18
- Chain sequence: "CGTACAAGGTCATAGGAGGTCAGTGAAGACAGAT"
  Readout type: "PBM binding z-score"
  Recorded result: 3.97
- Chain sequence: "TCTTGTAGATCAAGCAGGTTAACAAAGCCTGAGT"
  Readout type: "PBM binding z-score"
  Recorded result: 1.57
- Chain sequence: "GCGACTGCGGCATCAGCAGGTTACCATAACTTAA"
  Readout type: "PBM binding z-score"
  Recorded result: -0.255
- Chain sequence: "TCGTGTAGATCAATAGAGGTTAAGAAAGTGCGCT"
  Readout type: "PBM binding z-score"
  Recorded result: 1.64
- Chain sequence: "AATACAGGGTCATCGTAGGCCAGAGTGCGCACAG"
  Readout type: "PBM binding z-score"
  Recorded result: 2.61
- Chain sequence: "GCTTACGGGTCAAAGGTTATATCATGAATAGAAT"
  Readout type: "PBM binding z-score"
  Recorded result: 4.73
- Chain sequence: "CCTACTGGGCCAAAGGTCATTGAATCCAATGCTC"
  Readout type: "PBM binding z-score"
  Recorded result: 5.12

* * *

- Tested on: PPARg:RXRa IVT, anti-PPARg (NR concentration 270 nM, RXRa partner concentration 90 nM)
- Test details: PBM binding z-score (relative to random genomic background probes); higher = stronger binding; sequences stand for … in GC…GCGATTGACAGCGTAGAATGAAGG
# PBM binding z-score >= 3 gives Criterion met, anything below gives Criterion not met

- Chain sequence: "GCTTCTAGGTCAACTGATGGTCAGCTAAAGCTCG"
  Class assignment: "Criterion met"
- Chain sequence: "CCAGACAGGTGAGAAGGTATCTCAGCCTCGATTA"
  Class assignment: "Criterion not met"
- Chain sequence: "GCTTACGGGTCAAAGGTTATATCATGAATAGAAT"
  Class assignment: "Criterion met"
- Chain sequence: "TTTGCTAGGTCAACGATGGTCAGCTAATCTGCTA"
  Class assignment: "Criterion met"
- Chain sequence: "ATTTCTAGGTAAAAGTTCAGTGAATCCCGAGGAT"
  Class assignment: "Criterion met"
- Chain sequence: "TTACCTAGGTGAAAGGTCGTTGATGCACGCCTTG"
  Class assignment: "Criterion met"
- Chain sequence: "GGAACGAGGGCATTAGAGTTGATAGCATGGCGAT"
  Class assignment: "Criterion not met"
- Chain sequence: "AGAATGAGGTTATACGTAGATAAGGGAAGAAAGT"
  Class assignment: "Criterion not met"
- Chain sequence: "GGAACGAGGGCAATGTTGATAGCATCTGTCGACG"
  Class assignment: "Criterion not met"
- Chain sequence: "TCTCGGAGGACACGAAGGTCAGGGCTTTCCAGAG"
  Class assignment: "Criterion not met"
- Chain sequence: "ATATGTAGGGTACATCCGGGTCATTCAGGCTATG"
  Class assignment: "Criterion met"
- Chain sequence: "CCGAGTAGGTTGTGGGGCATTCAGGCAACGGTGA"
  Class assignment: "Criterion not met"
- Chain sequence: "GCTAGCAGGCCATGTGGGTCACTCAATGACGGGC"
  Class assignment: "Criterion met"
- Chain sequence: "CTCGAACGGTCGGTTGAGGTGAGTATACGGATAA"
  Class assignment: "Criterion not met"
- Chain sequence: "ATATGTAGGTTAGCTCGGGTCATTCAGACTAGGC"
  Class assignment: "Criterion met"
- Chain sequence: "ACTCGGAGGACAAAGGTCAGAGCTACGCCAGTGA"
  Class assignment: "Criterion met"
- Chain sequence: "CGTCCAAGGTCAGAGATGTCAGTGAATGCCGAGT"
  Class assignment: "Criterion not met"
- Chain sequence: "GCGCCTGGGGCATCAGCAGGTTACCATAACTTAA"
  Class assignment: "Criterion not met"
- Chain sequence: "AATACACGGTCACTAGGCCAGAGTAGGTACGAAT"
  Class assignment: "Criterion met"
- Chain sequence: "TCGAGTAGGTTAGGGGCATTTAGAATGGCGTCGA"
  Class assignment: "Criterion not met"
- Chain sequence: "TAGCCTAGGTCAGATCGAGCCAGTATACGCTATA"
  Class assignment: "Criterion not met"
- Chain sequence: "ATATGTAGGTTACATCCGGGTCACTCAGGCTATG"
  Class assignment: "Criterion met"
- Chain sequence: "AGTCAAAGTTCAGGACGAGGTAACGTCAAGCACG"
  Class assignment: "Criterion not met"
- Chain sequence: "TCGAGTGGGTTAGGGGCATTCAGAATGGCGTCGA"
  Class assignment: "Criterion not met"
- Chain sequence: "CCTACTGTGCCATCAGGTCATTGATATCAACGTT"
  Class assignment: "Criterion met"
- Chain sequence: "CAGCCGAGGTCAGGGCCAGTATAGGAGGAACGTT"
  Class assignment: "Criterion met"
- Chain sequence: "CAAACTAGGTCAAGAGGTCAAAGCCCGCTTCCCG"
  Class assignment: "Criterion met"
- Chain sequence: "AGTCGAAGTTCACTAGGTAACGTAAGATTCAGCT"
  Class assignment: "Criterion met"
- Chain sequence: "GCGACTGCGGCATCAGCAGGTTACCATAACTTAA"
  Class assignment: "Criterion not met"
- Chain sequence: "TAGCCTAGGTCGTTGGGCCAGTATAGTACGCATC"
  Class assignment: "Criterion not met"
- Chain sequence: "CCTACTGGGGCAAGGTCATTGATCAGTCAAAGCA"
  Class assignment: "Criterion met"
- Chain sequence: "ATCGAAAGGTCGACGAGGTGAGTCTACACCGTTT"
  Class assignment: "Criterion not met"
- Chain sequence: "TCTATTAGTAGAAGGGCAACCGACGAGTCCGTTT"
  Class assignment: "Criterion not met"
- Chain sequence: "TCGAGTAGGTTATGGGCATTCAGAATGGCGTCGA"
  Class assignment: "Criterion not met"
- Chain sequence: "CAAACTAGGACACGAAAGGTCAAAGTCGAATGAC"
  Class assignment: "Criterion met"
- Chain sequence: "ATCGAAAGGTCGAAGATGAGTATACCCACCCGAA"
  Class assignment: "Criterion not met"
- Chain sequence: "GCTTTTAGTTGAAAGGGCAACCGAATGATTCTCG"
  Class assignment: "Criterion not met"
- Chain sequence: "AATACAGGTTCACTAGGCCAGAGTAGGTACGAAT"
  Class assignment: "Criterion not met"
- Chain sequence: "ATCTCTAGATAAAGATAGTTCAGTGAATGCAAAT"
  Class assignment: "Criterion not met"
- Chain sequence: "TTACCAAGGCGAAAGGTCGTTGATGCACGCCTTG"
  Class assignment: "Criterion not met"
- Chain sequence: "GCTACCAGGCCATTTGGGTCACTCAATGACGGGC"
  Class assignment: "Criterion not met"
- Chain sequence: "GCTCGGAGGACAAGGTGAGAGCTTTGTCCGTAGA"
  Class assignment: "Criterion not met"
- Chain sequence: "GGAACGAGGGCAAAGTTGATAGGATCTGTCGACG"
  Class assignment: "Criterion met"
- Chain sequence: "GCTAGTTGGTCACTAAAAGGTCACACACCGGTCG"
  Class assignment: "Criterion met"
- Chain sequence: "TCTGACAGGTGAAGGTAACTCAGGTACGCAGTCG"
  Class assignment: "Criterion not met"
- Chain sequence: "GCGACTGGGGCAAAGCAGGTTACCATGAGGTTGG"
  Class assignment: "Criterion met"
- Chain sequence: "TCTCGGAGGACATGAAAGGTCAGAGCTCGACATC"
  Class assignment: "Criterion not met"
- Chain sequence: "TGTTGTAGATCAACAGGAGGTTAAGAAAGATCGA"
  Class assignment: "Criterion not met"
